Tested on: LXRa homodimer (NR concentration 270 nM)
test-details: PBM binding z-score (relative to random genomic background probes); higher = stronger binding; sequences stand for … in GC…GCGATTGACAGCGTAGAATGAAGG
Consider the following partition of reported PBM binding z-score into named classes: low = under -0.2, medium = from -0.2 up to 0.4, high = 0.4 and over

sequence	category-label
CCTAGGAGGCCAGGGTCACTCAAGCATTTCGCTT	low
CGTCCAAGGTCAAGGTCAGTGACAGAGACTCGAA	high
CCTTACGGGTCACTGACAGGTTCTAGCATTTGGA	medium
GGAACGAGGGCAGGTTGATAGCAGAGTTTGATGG	low
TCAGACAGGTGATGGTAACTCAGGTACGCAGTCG	medium
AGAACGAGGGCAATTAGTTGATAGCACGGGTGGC	low
TTACCAAGGTGAAGGTCGTCGATCCCTCTGTAGA	low
TATACAGAGTCAAAGGCCAGAGTACGAATGTCGA	medium
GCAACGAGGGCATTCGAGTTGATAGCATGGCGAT	low
CATACAGGGTCAGCTTGGCCAGAGTAGGGACGGC	low
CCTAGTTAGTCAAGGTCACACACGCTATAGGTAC	high
ATATGTAGGTTATATCCGGGTCATTCAGGCTATG	high
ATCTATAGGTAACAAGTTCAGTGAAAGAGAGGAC	high
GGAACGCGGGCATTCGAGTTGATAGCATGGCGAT	low
CAGCCTAGGTCAGGGCTAGTATAGGAGGAACGTT	low
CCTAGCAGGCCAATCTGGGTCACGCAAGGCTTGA	low
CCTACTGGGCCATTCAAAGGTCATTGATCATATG	high
TCTCGTTGGTCACGGAGGTCACACACGACGGGTA	high
ACTCGTTGGTCAGCTGAGGTCACACACAATTCGG	high
CGAACTTGGTCAGAACAGGACAGTGAAGGATGAT	low
CCTACTGGGCCATTCAGAGCTCATTGATCATATG	low
CCTACTGGGCCAAAAAGGTCATTTATGCCGATAA	high
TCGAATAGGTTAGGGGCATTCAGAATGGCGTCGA	medium
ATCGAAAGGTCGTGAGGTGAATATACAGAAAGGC	medium
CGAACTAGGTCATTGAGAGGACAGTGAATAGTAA	high
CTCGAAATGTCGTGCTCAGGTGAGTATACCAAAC	medium
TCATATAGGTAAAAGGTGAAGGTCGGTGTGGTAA	medium
GCTGCTAGGTCAGGTTGGACAGCTAACGGGTACG	medium
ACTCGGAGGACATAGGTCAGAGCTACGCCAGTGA	medium
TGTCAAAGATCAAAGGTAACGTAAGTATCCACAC	low
CGTCCAAGGTCAGAGTGGTCAGTGAATGCCGAGT	medium
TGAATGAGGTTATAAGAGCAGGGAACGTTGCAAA	medium
CATACAGGGTCAGCTAGGCCAGAATAGGGACGGC	medium
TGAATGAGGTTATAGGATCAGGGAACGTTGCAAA	low
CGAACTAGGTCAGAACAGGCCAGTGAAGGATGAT	low
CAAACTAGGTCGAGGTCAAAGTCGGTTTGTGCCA	high
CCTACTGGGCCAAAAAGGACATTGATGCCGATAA	low
TCTTGTAGATCAGTAGAGGTTAAGAAAGTGCGCT	high
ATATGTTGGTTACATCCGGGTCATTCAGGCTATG	high
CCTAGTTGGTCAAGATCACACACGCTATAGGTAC	high

====

Test system: THRa homodimer (NR concentration 90 nM)
test-details: PBM binding z-score (relative to random genomic background probes); higher = stronger binding; sequences stand for … in GC…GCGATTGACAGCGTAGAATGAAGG

sequence	PBM binding z-score
CCTACTGGGCCAAGGTCATTAATCAGTCAAAGCA	2.03
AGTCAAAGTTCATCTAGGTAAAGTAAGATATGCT	0.199
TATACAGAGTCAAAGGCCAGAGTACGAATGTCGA	-0.776
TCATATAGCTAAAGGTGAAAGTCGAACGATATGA	-0.427
CCTTACGGGGCACGAGGTTATAGCACGACGAGCG	0.0456
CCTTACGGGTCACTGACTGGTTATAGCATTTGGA	0.498
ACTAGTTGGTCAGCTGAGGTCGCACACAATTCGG	2.58
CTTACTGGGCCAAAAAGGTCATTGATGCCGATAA	0.313
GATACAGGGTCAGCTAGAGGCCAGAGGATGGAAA	0.198
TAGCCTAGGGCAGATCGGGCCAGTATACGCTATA	-1.07
GCTTACGGGTCAAAGGATATAGCATGAATAGAAT	-0.222
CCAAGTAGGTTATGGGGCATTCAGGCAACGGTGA	-0.0137
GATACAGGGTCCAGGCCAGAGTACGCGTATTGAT	-0.0572
AGAACGAGGGCACGCTGAGTAGATAGCAGAGTAG	-0.259
CCTATTAGTTGACCATAAGGGCAACCCAAGCTCG	1.53
TGAATGAGGTTAAAGATCAGGGACCGTGGCGTCG	0.453
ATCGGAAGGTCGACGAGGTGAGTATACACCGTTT	0.579
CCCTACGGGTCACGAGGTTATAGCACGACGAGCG	1.02
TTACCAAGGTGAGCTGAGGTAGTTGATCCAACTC	0.0435
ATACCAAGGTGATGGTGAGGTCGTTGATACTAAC	2.44
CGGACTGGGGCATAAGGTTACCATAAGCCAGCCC	1.39
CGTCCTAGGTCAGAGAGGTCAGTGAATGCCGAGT	1.92
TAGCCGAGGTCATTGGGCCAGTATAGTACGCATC	2.77
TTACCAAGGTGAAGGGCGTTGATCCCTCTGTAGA	0.536
TCTAGTTGGTCAAAGGACACACACTCGAAATGCG	1.14
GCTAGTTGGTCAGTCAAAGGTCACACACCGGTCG	1.59
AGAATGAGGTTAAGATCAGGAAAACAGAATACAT	0.529
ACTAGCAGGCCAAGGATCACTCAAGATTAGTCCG	-0.556
GCGACCGGGGCATCAGCAGGTTACCATAACTTAA	0.295
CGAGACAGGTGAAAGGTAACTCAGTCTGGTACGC	-0.303
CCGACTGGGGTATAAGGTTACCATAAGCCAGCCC	1.21
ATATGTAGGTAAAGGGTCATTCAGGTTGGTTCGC	1.71
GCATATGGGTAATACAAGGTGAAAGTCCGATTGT	0.841
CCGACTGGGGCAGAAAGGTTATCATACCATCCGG	-0.293
TCTATTAGTTGAAGGGCATCCGACGAGTCCGTTT	0.288
CCTCAAAGTTCAACTAAGGTAACGTAAAGCACGC	2.38
ACTATGAGTTGAGACGAGGGCAACCGATAGGTTG	0.024
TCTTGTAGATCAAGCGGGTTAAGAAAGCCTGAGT	-0.488
AGAATGAGGTTATACGTAGATCAAGGAAGAAAGT	0.406
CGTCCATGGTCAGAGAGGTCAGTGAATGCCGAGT	0.835
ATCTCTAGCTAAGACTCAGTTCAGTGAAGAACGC	0.471
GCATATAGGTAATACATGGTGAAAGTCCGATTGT	-0.218

====

Test system: RXRa DBDmut IVT, anti-RXR (DBD mutation: RXRa K156A/R161A, NR concentration 90 nM)
test-details: PBM binding z-score (relative to random genomic background probes); higher = stronger binding; sequences stand for … in GC…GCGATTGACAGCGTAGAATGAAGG
Each record here notes measured PBM binding z-score.
assay-metric: PBM binding z-score

sequence	assay-metric	test-result
TAGCCTAGGTCGTGGGCCAGTATACCACGCGAAC	PBM binding z-score	-0.872
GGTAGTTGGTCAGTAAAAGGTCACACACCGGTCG	PBM binding z-score	-0.0829
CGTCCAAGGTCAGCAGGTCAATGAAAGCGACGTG	PBM binding z-score	2.62
TTTATTAGTTGAAGGGCAACCGACGAGTCCGTTT	PBM binding z-score	0.859

====

System: PPARg:RXRa DBDmut IVT, anti-RXR (DBD mutation: RXRa K156A/R161A, NR concentration 270 nM, RXRa partner concentration 90 nM)
test-details: PBM binding z-score (relative to random genomic background probes); higher = stronger binding; sequences stand for … in GC…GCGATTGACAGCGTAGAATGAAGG

sequence	PBM binding z-score
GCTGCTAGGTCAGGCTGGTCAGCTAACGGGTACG	3.75
ACTATTAGTTGACTTAGAGCAACCGATACGACGC	-0.101
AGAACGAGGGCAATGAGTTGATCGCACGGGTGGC	2.79
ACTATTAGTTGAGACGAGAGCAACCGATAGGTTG	-0.112
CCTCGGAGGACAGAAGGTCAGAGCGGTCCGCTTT	0.0292
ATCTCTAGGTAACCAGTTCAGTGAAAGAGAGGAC	3.36
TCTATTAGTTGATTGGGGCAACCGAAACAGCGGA	2.23
TATTGTAGATCAAGCAGGTTAAGAAAGCCTGAGT	0.302
TCATATAGCTAAAAGGTGAAAGTCGGTGTGGTAA	2.08
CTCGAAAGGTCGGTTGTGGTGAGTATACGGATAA	0.261
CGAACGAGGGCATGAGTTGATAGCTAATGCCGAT	2.71
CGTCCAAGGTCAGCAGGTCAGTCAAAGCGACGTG	2.82
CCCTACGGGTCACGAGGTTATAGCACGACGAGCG	2.05
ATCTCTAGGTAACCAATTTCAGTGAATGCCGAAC	3.89
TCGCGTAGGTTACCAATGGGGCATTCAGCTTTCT	1.28
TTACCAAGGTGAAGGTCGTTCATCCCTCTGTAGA	1.8
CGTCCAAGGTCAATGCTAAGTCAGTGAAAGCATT	2.98
AGAACGCGGGCAATGAGTTGATAGCACGGGTGGC	0.179
ATCTCTATGTAAAGATAGTTCAGTGAATGCAAAT	-0.623
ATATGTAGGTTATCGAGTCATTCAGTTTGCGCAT	6.65
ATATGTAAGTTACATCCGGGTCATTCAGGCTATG	1.5
ACTCGGAGGACGAAGGTCAGAGCTACGCCAGTGA	-0.0159
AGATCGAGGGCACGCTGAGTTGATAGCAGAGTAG	3.66
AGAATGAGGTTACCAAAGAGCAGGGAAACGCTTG	3.47
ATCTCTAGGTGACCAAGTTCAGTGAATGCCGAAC	5.31
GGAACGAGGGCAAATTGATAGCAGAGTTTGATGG	3.46
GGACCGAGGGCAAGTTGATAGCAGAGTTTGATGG	0.956
TTACCAAGGTGAGCTGAGGTCGATGATCCAACTC	0.764
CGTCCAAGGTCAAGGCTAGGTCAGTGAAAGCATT	3.68
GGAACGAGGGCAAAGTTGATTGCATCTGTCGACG	4.27
TCTGCTAGGTCAACGATGGTCAGATAATCTGCTA	4.35
TATACAGGGTCAGAGGCCAGAGTACGAATGTCGA	1.65
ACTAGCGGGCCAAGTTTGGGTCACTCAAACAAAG	0.418
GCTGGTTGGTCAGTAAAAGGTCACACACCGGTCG	0.091
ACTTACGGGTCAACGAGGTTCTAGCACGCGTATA	3.33
ATCTCTAGGTAAAGATAGTTGAGTGAATGCAAAT	2.14
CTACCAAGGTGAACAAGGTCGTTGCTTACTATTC	2.88
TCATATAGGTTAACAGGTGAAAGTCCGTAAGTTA	5.79
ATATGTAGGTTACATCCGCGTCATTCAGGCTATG	7.33
GGAACGAGGGCATTCGGGTTGATAGCATGGCGAT	2.77
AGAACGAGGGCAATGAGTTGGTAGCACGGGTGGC	3.11
